These data points were gathered from the NIST ThermoML archive (doi:10.1016/j.fluid.2012.05.006).

protocol.details: activity coefficient (dimensionless); of the first substance listed, at infinite dilution; xn = mol fraction of the nth substance listed
test.settings: 303.15 K; Liquid; Chromatography; x1 = 0

[
  {
    "compound": "CC1CCCCC1 [methylcyclohexane] + CCCCCCCCn1cc[n+](C)c1.O=[N+]([O-])[O-]",
    "activity coefficient": 7.91
  },
  {
    "compound": "Cc1cccc(C)c1 [1,3-dimethylbenzene] + CCCCCCCCn1cc[n+](C)c1.O=[N+]([O-])[O-]",
    "activity coefficient": 2.02
  },
  {
    "compound": "Cc1ccc(C)cc1 [1,4-dimethylbenzene] + CCCCCCCCn1cc[n+](C)c1.O=[N+]([O-])[O-]",
    "activity coefficient": 1.98
  },
  {
    "compound": "c1ccccc1 [benzene] + CCCCCCCCn1cc[n+](C)c1.O=[N+]([O-])[O-]",
    "activity coefficient": 0.94
  },
  {
    "compound": "CC#N [acetonitrile] + CCCCCCCCn1cc[n+](C)c1.O=[N+]([O-])[O-]",
    "activity coefficient": 0.6
  },
  {
    "compound": "CO [methanol] + CCCCCCCCn1cc[n+](C)c1.O=[N+]([O-])[O-]",
    "activity coefficient": 0.26
  },
  {
    "compound": "C1CCCCC1 [cyclohexane] + CCCCCCCCn1cc[n+](C)c1.O=[N+]([O-])[O-]",
    "activity coefficient": 6.52
  },
  {
    "compound": "ClC(Cl)Cl [trichloromethane] + CCCCCCCCn1cc[n+](C)c1.O=[N+]([O-])[O-]",
    "activity coefficient": 0.17
  }
]

---

protocol.details: activity coefficient (dimensionless); of the first substance listed, at infinite dilution; xn = mol fraction of the nth substance listed
test.settings: 343.15 K; Liquid; Chromatography; x1 = 0
Strictly below 9 in activity coefficient: t. Otherwise: f.

[
  {
    "compound": "CCCCCCC [heptane] + CCCCCCCCn1cc[n+](C)c1.O=[N+]([O-])[O-]",
    "answer.label": "f"
  },
  {
    "compound": "CCCCCCCC [octane] + CCCCCCCCn1cc[n+](C)c1.O=[N+]([O-])[O-]",
    "answer.label": "f"
  },
  {
    "compound": "CC(C)O [propan-2-ol] + CCCCCCCCn1cc[n+](C)c1.O=[N+]([O-])[O-]",
    "answer.label": "t"
  },
  {
    "compound": "CCCCCCCCC [nonane] + CCCCCCCCn1cc[n+](C)c1.O=[N+]([O-])[O-]",
    "answer.label": "f"
  },
  {
    "compound": "ClC(Cl)Cl [trichloromethane] + CCCCCCCCn1cc[n+](C)c1.O=[N+]([O-])[O-]",
    "answer.label": "t"
  },
  {
    "compound": "CC1CCCCC1 [methylcyclohexane] + CCCCCCCCn1cc[n+](C)c1.O=[N+]([O-])[O-]",
    "answer.label": "t"
  }
]

---

Item-by-item account of activity coefficient
protocol.details: activity coefficient (dimensionless); of the first substance listed, at infinite dilution; xn = mol fraction of the nth substance listed
test.settings: 303.15 K; Liquid; Chromatography; x1 = 0

[
  {
    "molecule": "CCO [ethanol] + CCCCCCCCn1cc[n+](C)c1.O=[N+]([O-])[O-]",
    "activity coefficient": 0.38
  },
  {
    "molecule": "CCCCCCCC [octane] + CCCCCCCCn1cc[n+](C)c1.O=[N+]([O-])[O-]",
    "activity coefficient": 17.9
  },
  {
    "molecule": "CCOC(C)=O [ethyl acetate] + CCCCCCCCn1cc[n+](C)c1.O=[N+]([O-])[O-]",
    "activity coefficient": 1.65
  },
  {
    "molecule": "Cc1ccccc1 [toluene] + CCCCCCCCn1cc[n+](C)c1.O=[N+]([O-])[O-]",
    "activity coefficient": 1.41
  },
  {
    "molecule": "ClC(Cl)(Cl)Cl [tetrachloromethane] + CCCCCCCCn1cc[n+](C)c1.O=[N+]([O-])[O-]",
    "activity coefficient": 1.16
  },
  {
    "molecule": "CCCCCCC [heptane] + CCCCCCCCn1cc[n+](C)c1.O=[N+]([O-])[O-]",
    "activity coefficient": 15.4
  },
  {
    "molecule": "CCCCCCCCC [nonane] + CCCCCCCCn1cc[n+](C)c1.O=[N+]([O-])[O-]",
    "activity coefficient": 23.1
  },
  {
    "molecule": "CC(C)CC(C)(C)C [2,2,4-trimethylpentane] + CCCCCCCCn1cc[n+](C)c1.O=[N+]([O-])[O-]",
    "activity coefficient": 18.5
  }
]

---

protocol.details: activity coefficient (dimensionless); of the first substance listed, at infinite dilution; xn = mol fraction of the nth substance listed
test.settings: 363.15 K; Liquid; Chromatography; x1 = 0

[
  {
    "compound": "Cc1ccc(C)cc1 [1,4-dimethylbenzene] + CCCCCCCCn1cc[n+](C)c1.O=[N+]([O-])[O-]",
    "activity coefficient": 2.03
  },
  {
    "compound": "CC1CCCCC1 [methylcyclohexane] + CCCCCCCCn1cc[n+](C)c1.O=[N+]([O-])[O-]",
    "activity coefficient": 6.41
  },
  {
    "compound": "ClC(Cl)(Cl)Cl [tetrachloromethane] + CCCCCCCCn1cc[n+](C)c1.O=[N+]([O-])[O-]",
    "activity coefficient": 1.39
  },
  {
    "compound": "c1ccccc1 [benzene] + CCCCCCCCn1cc[n+](C)c1.O=[N+]([O-])[O-]",
    "activity coefficient": 1.01
  },
  {
    "compound": "CCOC(C)=O [ethyl acetate] + CCCCCCCCn1cc[n+](C)c1.O=[N+]([O-])[O-]",
    "activity coefficient": 1.6
  },
  {
    "compound": "Cc1ccccc1 [toluene] + CCCCCCCCn1cc[n+](C)c1.O=[N+]([O-])[O-]",
    "activity coefficient": 1.46
  },
  {
    "compound": "CC(C)=O [acetone] + CCCCCCCCn1cc[n+](C)c1.O=[N+]([O-])[O-]",
    "activity coefficient": 0.74
  },
  {
    "compound": "CCCCCCCC [octane] + CCCCCCCCn1cc[n+](C)c1.O=[N+]([O-])[O-]",
    "activity coefficient": 14.1
  },
  {
    "compound": "CC#N [acetonitrile] + CCCCCCCCn1cc[n+](C)c1.O=[N+]([O-])[O-]",
    "activity coefficient": 0.54
  },
  {
    "compound": "ClC(Cl)Cl [trichloromethane] + CCCCCCCCn1cc[n+](C)c1.O=[N+]([O-])[O-]",
    "activity coefficient": 0.23
  },
  {
    "compound": "CCCCCCCCC [nonane] + CCCCCCCCn1cc[n+](C)c1.O=[N+]([O-])[O-]",
    "activity coefficient": 18.2
  },
  {
    "compound": "C1CCOC1 [tetrahydrofuran] + CCCCCCCCn1cc[n+](C)c1.O=[N+]([O-])[O-]",
    "activity coefficient": 0.97
  },
  {
    "compound": "CC(C)CC(C)(C)C [2,2,4-trimethylpentane] + CCCCCCCCn1cc[n+](C)c1.O=[N+]([O-])[O-]",
    "activity coefficient": 11.4
  },
  {
    "compound": "CCO [ethanol] + CCCCCCCCn1cc[n+](C)c1.O=[N+]([O-])[O-]",
    "activity coefficient": 0.3
  },
  {
    "compound": "C1CCCCC1 [cyclohexane] + CCCCCCCCn1cc[n+](C)c1.O=[N+]([O-])[O-]",
    "activity coefficient": 4.93
  },
  {
    "compound": "CO [methanol] + CCCCCCCCn1cc[n+](C)c1.O=[N+]([O-])[O-]",
    "activity coefficient": 0.22
  },
  {
    "compound": "CCCCC [pentane] + CCCCCCCCn1cc[n+](C)c1.O=[N+]([O-])[O-]",
    "activity coefficient": 5.77
  }
]

---

protocol.details: activity coefficient (dimensionless); of the first substance listed, at infinite dilution; xn = mol fraction of the nth substance listed
test.settings: 343.15 K; Liquid; Chromatography; x1 = 0
Class field: derived from activity coefficient; ranges group 1: < 0.8; group 2: ≥ 0.8 and < 2; group 3: ≥ 2

[
  {
    "molecule": "ClC(Cl)(Cl)Cl [tetrachloromethane] + CCCCCCCCn1cc[n+](C)c1.O=[N+]([O-])[O-]",
    "answer.label": "group 2"
  },
  {
    "molecule": "CC(C)=O [acetone] + CCCCCCCCn1cc[n+](C)c1.O=[N+]([O-])[O-]",
    "answer.label": "group 1"
  },
  {
    "molecule": "Cc1ccccc1 [toluene] + CCCCCCCCn1cc[n+](C)c1.O=[N+]([O-])[O-]",
    "answer.label": "group 2"
  },
  {
    "molecule": "Cc1cccc(C)c1 [1,3-dimethylbenzene] + CCCCCCCCn1cc[n+](C)c1.O=[N+]([O-])[O-]",
    "answer.label": "group 3"
  },
  {
    "molecule": "c1ccccc1 [benzene] + CCCCCCCCn1cc[n+](C)c1.O=[N+]([O-])[O-]",
    "answer.label": "group 2"
  },
  {
    "molecule": "CCCO [propan-1-ol] + CCCCCCCCn1cc[n+](C)c1.O=[N+]([O-])[O-]",
    "answer.label": "group 1"
  },
  {
    "molecule": "CCOC(C)=O [ethyl acetate] + CCCCCCCCn1cc[n+](C)c1.O=[N+]([O-])[O-]",
    "answer.label": "group 2"
  },
  {
    "molecule": "ClCCl [dichloromethane] + CCCCCCCCn1cc[n+](C)c1.O=[N+]([O-])[O-]",
    "answer.label": "group 1"
  },
  {
    "molecule": "C1CCOC1 [tetrahydrofuran] + CCCCCCCCn1cc[n+](C)c1.O=[N+]([O-])[O-]",
    "answer.label": "group 2"
  },
  {
    "molecule": "Cc1ccccc1C [1,2-dimethylbenzene] + CCCCCCCCn1cc[n+](C)c1.O=[N+]([O-])[O-]",
    "answer.label": "group 2"
  },
  {
    "molecule": "CC#N [acetonitrile] + CCCCCCCCn1cc[n+](C)c1.O=[N+]([O-])[O-]",
    "answer.label": "group 1"
  },
  {
    "molecule": "C1CCCCC1 [cyclohexane] + CCCCCCCCn1cc[n+](C)c1.O=[N+]([O-])[O-]",
    "answer.label": "group 3"
  },
  {
    "molecule": "CO [methanol] + CCCCCCCCn1cc[n+](C)c1.O=[N+]([O-])[O-]",
    "answer.label": "group 1"
  },
  {
    "molecule": "CCO [ethanol] + CCCCCCCCn1cc[n+](C)c1.O=[N+]([O-])[O-]",
    "answer.label": "group 1"
  },
  {
    "molecule": "CCCCC [pentane] + CCCCCCCCn1cc[n+](C)c1.O=[N+]([O-])[O-]",
    "answer.label": "group 3"
  },
  {
    "molecule": "CC(C)CC(C)(C)C [2,2,4-trimethylpentane] + CCCCCCCCn1cc[n+](C)c1.O=[N+]([O-])[O-]",
    "answer.label": "group 3"
  }
]
